In this section we review reported RLU values for a set of compounds.
Biological target: human TAS2R1 (Homo sapiens)
Construct: expressed in transfected cells; host or cells: HEK293T-Gα16gust44
Sequence (Q9NYW7 whole entry): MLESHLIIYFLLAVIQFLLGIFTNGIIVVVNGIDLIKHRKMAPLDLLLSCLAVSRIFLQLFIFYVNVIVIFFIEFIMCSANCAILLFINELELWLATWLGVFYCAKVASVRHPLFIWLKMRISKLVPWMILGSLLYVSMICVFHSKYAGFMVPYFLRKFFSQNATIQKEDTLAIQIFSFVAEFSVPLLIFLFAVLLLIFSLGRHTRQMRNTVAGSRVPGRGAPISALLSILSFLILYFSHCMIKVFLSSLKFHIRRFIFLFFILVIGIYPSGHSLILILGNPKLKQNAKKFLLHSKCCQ
Experiment: Calcium imaging assay (FLIPR), HEK293T-Gα16gust44 cells transfected with human TAS2R1
Type: cell-based
Settings: Time 118.796 s
API: value field is a number in RLU; no unit string.

Examples from the recorded data:
COMPOUND	TESTED_SYSTEM	RLU / RLU
C[C@H](CCC(=O)O)[C@H]1CC[C@H]2[C@@H]3[C@H](O)C[C@@H]4C[C@H](O)CC[C@]4(C)[C@H]3CC[C@]12C [Chenodeoxycholic Acid, chenodeoxycholic acid]	human TAS2R1 (Homo sapiens)	614.947
C[C@H](CCC(=O)O)[C@H]1CC[C@H]2[C@@H]3[C@@H](O)C[C@@H]4C[C@H](O)CC[C@]4(C)[C@H]3CC[C@]12C [Ursodeoxycholic Acid, ursodeoxycholic acid]	human TAS2R1 (Homo sapiens)	323.517
C[C@H](CCC(=O)O)[C@H]1CC[C@H]2[C@@H]3[C@H](O)C[C@@H]4C[C@H](O)CC[C@]4(C)[C@H]3C[C@H](O)[C@]12C [Cholic Acid, cholic acid]	human TAS2R1 (Homo sapiens)	477.82

Here's the next entry for you.
Quick one: give measured RLU for C[C@H](CCC(=O)O)[C@H]1CC[C@H]2[C@@H]3CC[C@@H]4C[C@H](O)CC[C@]4(C)[C@H]3CC[C@]12C [Lithocholic Acid, lithocholic acid]
842.814

====

In this section we review reported RLU values for a set of compounds.
Molecular target: human TAS2R1 (Homo sapiens)
Construct: expressed in transfected cells; host or cells: HEK293T-Gα16gust44
Test: Calcium imaging assay (FLIPR), HEK293T-Gα16gust44 cells transfected with human TAS2R1
Format: cell-based
Conditions: Time 149.547 s
API: value field is a number in RLU; no unit string.

Examples from the recorded data:
COMPOUND	RLU [RLU]
C[C@H](CCC(=O)NCCS(=O)(=O)O)[C@H]1CC[C@H]2[C@@H]3CC[C@@H]4C[C@H](O)CC[C@]4(C)[C@H]3CC[C@]12C	331.65
C[C@H](CCC(=O)NCC(=O)O)[C@H]1CC[C@H]2[C@@H]3[C@H](O)C[C@@H]4C[C@H](O)CC[C@]4(C)[C@H]3C[C@H](O)[C@]12C	319.38
C[C@H](CCC(=O)O)[C@H]1CC[C@H]2[C@@H]3CC[C@@H]4C[C@H](O)CC[C@]4(C)[C@H]3C[C@H](O)[C@]12C	313.832

Here's the next entry for you.
Quick one: give measured RLU for C[C@H](CCC(=O)NCCS(=O)(=O)O)[C@H]1CC[C@H]2[C@@H]3[C@H](O)C[C@@H]4C[C@H](O)CC[C@]4(C)[C@H]3C[C@H](O)[C@]12C
221.043

====

Target: human TAS2R4 (Homo sapiens)
Construct: expressed in transfected cells; host or cells: HEK293T-Gα16gust44
Sequence (Q9NYW5 1-299): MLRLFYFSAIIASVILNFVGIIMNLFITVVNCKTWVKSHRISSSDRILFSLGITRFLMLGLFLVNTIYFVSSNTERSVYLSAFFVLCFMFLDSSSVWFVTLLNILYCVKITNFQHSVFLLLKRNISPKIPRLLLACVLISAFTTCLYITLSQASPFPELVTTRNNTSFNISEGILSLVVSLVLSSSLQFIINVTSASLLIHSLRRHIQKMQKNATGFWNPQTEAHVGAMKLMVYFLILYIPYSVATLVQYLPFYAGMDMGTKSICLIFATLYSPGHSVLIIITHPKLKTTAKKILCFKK
Assay: Calcium imaging assay (FLIPR), HEK293T-Gα16gust44 cells transfected with human TAS2R4; further: test concentration or dose not given here
Assay type: cell-based
Conditions: Time (s) 30.781 (TCA, TLCA: 30.782)
Procedure: This set of bile acids was chosen because of their commercial availability in high purities, their diversity within the class of bile acids and their previous detection and quantitation in human blood. Stock solutions were prepared in DMSO. […] Measured data were negative control corrected by subtracting the signal of the mock-transfected cells and exported to Microsoft Excel using the FLIPR software ScreenWorks 4.2. […]
In this section we review reported RLU, fluorescence trace values for a set of molecules.
API: value field is a number in RLU; no unit string.

Examples from the recorded data:
COMPOUND	MEASUREMENT_NAME	VALUE_UNIT	REPORTED
C[C@H](CCC(=O)NCCS(=O)(=O)O)[C@H]1CC[C@H]2[C@@H]3[C@H](O)C[C@@H]4C[C@H](O)CC[C@]4(C)[C@H]3C[C@H](O)[C@]12C	RLU, fluorescence trace	RLU	164.035
C[C@H](CCC(=O)O)[C@H]1CC[C@H]2[C@@H]3[C@@H](O)C[C@@H]4C[C@H](O)CC[C@]4(C)[C@H]3CC[C@]12C	RLU, fluorescence trace	RLU	141.824

Quick one: give measured RLU, fluorescence trace for C[C@H](CCC(=O)NCCS(=O)(=O)O)[C@H]1CC[C@H]2[C@@H]3CC[C@@H]4C[C@H](O)CC[C@]4(C)[C@H]3CC[C@]12C
49.0114

Numbers sourced from paper PMC10247784.
